B1: PKD2L1 (parent)
chain: SGPEAARAGGWVSGEEFYMLTRRV

Variants of: B1
Assay: protein stability index of a GFP-peptide fusion (GPS, HEK-293T) (PSI 1-6); higher = more stable;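 also: lentivirally expressed fusions sorted by FACS into six bins by GFP to DsRed ratio, PSI derived from sequencing read proportions per bin multiplied by bin number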
Conditions: c terminus: a fixed tail appended
metric-name: protein stability index
Answer as a number with no unit attached.

[Q] Name the recorded protein stability index of the variant listed here: SGPEAARAGGWVSGKEFYMLTRRV
[A] 2.92

[Q] Name the recorded protein stability index of the variant listed here: SGPEAARAGGWVSGEEFYMLPRRV
[A] 3.33

[Q] Name the recorded protein stability index of the variant listed here: SGPEAARAGGWVNGEEFYMLTRRV
[A] 2.26

[Q] Name the recorded protein stability index of the variant listed here: SGPEAIRAGGWVSGEEFYMLTRRV
[A] 2.02

[Q] Name the recorded protein stability index of the variant listed here: SGPEAARAGGWWSGEEFYMLTRRV
[A] 2.28

[Q] Name the recorded protein stability index of the variant listed here: SGPEAARAGGWVGGEEFYMLTRRV
[A] 2.19
